test: NCI Yeast Anticancer Drug Screen. Data for the mlh1 rad18 strain (AID 175); conditions: S. cerevisiae mlh1 rad18 strain growth inhibition; at 50.0 µM; active compounds read high
The panel holds about 79,000 compounds, 15% with a hit somewhere; the sample as a whole holds those more often.
Tick True if growth inhibition is 10% or greater. Tick False if growth inhibition is less than 10%.

* Oc1ccc(O)cc1 | True
* O=C(Cc1nc2ccc([N+](=O)[O-])cc2nc1CC(=O)c1cccnc1)c1cccnc1 | False
* CC(=O)c1ccc(N=C(C#N)C2=C(O)c3ccccc3C2=O)cc1 | True
* O=[N+]([O-])c1ccc(O)c(S(=O)(=O)O)c1 | False
* O=C(O)CCC(NC(=O)OCc1ccccc1)C(=O)O (configuration not stated) | False
* COC(=O)c1ccc(C(C)C)cc1 | False
* COc1cccc(Sc2ccc([N+](=O)[O-])c3no[n+]([O-])c23)c1 | True
* CCC(C)(C)C1CCC(O)CC1 (configuration not stated) | False
* COc1cc(-c2ccc(NC(=O)NC3CC3)c(OC)c2)ccc1NC(=O)NC1CC1 | False
* CCCC(=O)Nc1ccc2c(c1)CN1C(=O)c3ccccc3C1=N2 | False
* COc1cc(C(=O)N/N=C/c2cccc([N+](=O)[O-])c2)cc(OC)c1OC | False
* O=c1c2ccccc2c(Br)c(Br)c2ccccc12 | True
* COc1cc2c3cc1Oc1c(OC)c(OC)cc4c1C(Cc1ccc(O)c(c1)Oc1ccc(cc1)CC3N(C)CC2)N(C)CC4 (configuration not stated) | False
* CCCCC/C=N/Nc1nc(C)cc(=O)[nH]1 | False
* Oc1ccccc1-c1nnco1 | False
* O=C(O)C(O)c1ccccc1 (configuration not stated) | True
* CCN1C(=O)/C(=C/C=C/N(C)c2ccccc2)SC1=S | False
* Cc1cc2ccccc2c(O)c1C#N | True
* O=C(O)CCCC(=O)O | False
* COc1cc(CN)ccc1O | True
* Cc1cc(N)c(S(=O)(=O)O)c(N)c1 | False
* c1cc[n+](C2c3ccccc3C([n+]3ccccc3)c3ccccc32)cc1 (configuration not stated) | True
* NC(=S)N/N=C/c1ccc(N)cc1 | False
* O=C(c1ccc(O)cc1)c1ccc(O)cc1 | True
* C=CCNc1ccccc1 | True
* CCC/C=C(\C)C(C)(C#N)C(=O)OCC (configuration not stated) | False
* CN(C)CCN(Cc1ccccc1)c1ccccc1 | False

// data source = PubChem BioAssay (NCI)
